Test Protocol: Stability in C57BL/6 mouse plasma at 13 to 38 MBq.kg^-1 after 2.5 mins
Assay type: ADME, organism-based
Setup Conditions: read-out: Stability
Metric: remaining at 2.5 min (%)
Field: numeric (%). Do not append units.

Ask: Which remaining at 2.5 min reading was recorded for the compound CC(C)[C@H](C(=O)NO)N(Cc1ccccc1)S(=O)(=O)c1ccc(OCC[18F])cc1 ?
Result: 86

----------
Assayed Target: Matrix metalloproteinase-9 (Homo sapiens)
Sequence (P14780 whole entry): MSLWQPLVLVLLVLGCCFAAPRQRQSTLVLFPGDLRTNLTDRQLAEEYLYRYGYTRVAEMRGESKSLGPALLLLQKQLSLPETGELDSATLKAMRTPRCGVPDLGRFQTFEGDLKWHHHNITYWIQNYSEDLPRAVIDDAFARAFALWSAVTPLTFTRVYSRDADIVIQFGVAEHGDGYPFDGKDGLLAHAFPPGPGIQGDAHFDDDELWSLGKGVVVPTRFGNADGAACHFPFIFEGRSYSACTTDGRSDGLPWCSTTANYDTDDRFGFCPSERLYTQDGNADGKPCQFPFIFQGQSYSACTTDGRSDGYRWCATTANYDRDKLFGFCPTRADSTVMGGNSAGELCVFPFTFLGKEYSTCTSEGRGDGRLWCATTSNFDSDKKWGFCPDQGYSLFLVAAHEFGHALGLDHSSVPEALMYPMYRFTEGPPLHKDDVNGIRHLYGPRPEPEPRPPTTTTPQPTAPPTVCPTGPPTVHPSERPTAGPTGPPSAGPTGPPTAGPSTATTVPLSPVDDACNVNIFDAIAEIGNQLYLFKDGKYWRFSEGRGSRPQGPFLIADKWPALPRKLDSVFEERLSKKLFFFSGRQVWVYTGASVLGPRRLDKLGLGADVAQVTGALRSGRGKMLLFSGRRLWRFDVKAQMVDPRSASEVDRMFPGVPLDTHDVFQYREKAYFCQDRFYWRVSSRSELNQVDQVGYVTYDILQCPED
pIC50: −log10 of the molar value.
Decide by pIC50: equal to or exceeding 6 means criterion met, less means criterion not met.

Ask: Can COc1ccc(S(=O)(=O)N(Cc2cccnc2F)[C@@H](C(=O)O)C(C)C)cc1 be said to have pIC50 at or above 6?
Result: criterion not met

Ask: Does the reported pIC50 for CC(C)[C@H](C(=O)NO)N(Cc1ccccc1)S(=O)(=O)c1ccc(F)cc1 fall at or above the 6 mark?
Result: criterion met

Ask: Textbook exercise: given the entry CC(C)[C@H](C(=O)NO)N(Cc1cccnc1)S(=O)(=O)c1ccc([N+](=O)[O-])cc1 , state whether its pIC50 is greater than or equal to 6.
Result: criterion not met

Ask: Determine whether measured pIC50 meets or exceeds 6 for COc1ccc(S(=O)(=O)N(Cc2ccc(Br)nc2)[C@@H](C(=O)O)C(C)C)cc1
Result: criterion not met

Ask: Check if pIC50 >= 6 (inclusive). Item: CC(C)[C@H](C(=O)NO)N(Cc1ccccc1)S(=O)(=O)c1ccc(OCCI)cc1
Result: criterion met

Ask: Would you say CC(C)[C@H](C(=O)NO)N(Cc1cccnc1)S(=O)(=O)c1ccc(OCCF)cc1 shows pIC50 at minimum 6?
Result: criterion met

Ask: Does the reported pIC50 for CC(C)[C@H](C(=O)NO)N(Cc1cccnc1)S(=O)(=O)c1ccc(F)cc1 fall at or above the 6 mark?
Result: criterion met

Now let's try a different one.
Ask: pIC50 >= 6 for CC(C)[C@H](C(=O)O)N(Cc1cccnc1)S(=O)(=O)c1ccc(F)cc1 ?
Result: criterion not met

----------
Test Protocol: Stability in C57BL/6 mouse plasma at 13 to 38 MBq.kg^-1 after 20 mins
Format: ADME, organism-based
Setup Conditions: read-out: Stability
Each entry below carries its recorded remaining at 20 min.
Response body: numeric value in %, unit text excluded.

Ask: So what does the record say about remaining at 20 min for CC(C)[C@H](C(=O)NO)N(Cc1ccccc1)S(=O)(=O)c1ccc(OCC[18F])cc1 ?
Result: 37

***
Ask: Name the recorded remaining at 20 min for CC(C)[C@H](C(=O)NO)N(Cc1cccnc1)S(=O)(=O)c1ccc(OCC[18F])cc1 .
Result: 53

----------
The reader will find pIC50 measurements below, all made with 72 kDa type IV collagenase (Homo sapiens).
Sequence (P08253 whole entry): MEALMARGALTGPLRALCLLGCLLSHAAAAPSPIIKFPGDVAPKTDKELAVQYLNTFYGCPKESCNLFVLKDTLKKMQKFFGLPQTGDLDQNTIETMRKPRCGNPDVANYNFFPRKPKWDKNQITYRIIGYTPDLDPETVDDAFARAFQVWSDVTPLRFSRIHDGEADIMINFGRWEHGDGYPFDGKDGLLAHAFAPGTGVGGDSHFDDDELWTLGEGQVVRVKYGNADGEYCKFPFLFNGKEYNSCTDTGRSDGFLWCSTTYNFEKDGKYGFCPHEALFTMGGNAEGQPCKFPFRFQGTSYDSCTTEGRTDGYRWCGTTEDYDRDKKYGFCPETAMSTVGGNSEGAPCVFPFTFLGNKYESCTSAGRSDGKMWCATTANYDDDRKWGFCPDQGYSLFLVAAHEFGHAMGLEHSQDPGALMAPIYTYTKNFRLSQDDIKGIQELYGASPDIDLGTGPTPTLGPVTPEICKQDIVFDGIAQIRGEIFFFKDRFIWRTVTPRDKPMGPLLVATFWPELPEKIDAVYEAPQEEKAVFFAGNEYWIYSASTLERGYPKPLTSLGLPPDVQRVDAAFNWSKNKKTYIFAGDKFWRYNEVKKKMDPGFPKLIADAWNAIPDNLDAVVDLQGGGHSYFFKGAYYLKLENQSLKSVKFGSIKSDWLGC
Hey, just a heads up that pIC50 is the negative log base 10 of the concentration in molar.

Example results:
Ask: What measured pIC50 is associated with CC(C)[C@H](C(=O)NO)N(Cc1cccnc1)S(=O)(=O)c1ccc(OCCF)cc1 on 72 kDa type IV collagenase (Homo sapiens)?
Result: 8.52

Ask: What pIC50 appears in the records for this molecule with 72 kDa type IV collagenase (Homo sapiens)? COc1ccc(S(=O)(=O)N(Cc2ccc(Br)nc2)[C@@H](C(=O)NO)C(C)C)cc1
Result: 8.70

Others:
Ask: Please state recorded pIC50 (tested on 72 kDa type IV collagenase (Homo sapiens)) of CC(C)[C@H](C(=O)NO)N(Cc1cccnc1)S(=O)(=O)c1ccc([N+](=O)[O-])cc1
Result: 6.12

Ask: Reported pIC50 for 72 kDa type IV collagenase (Homo sapiens), given COc1ccc(S(=O)(=O)N(Cc2cccnc2F)[C@@H](C(=O)NO)C(C)C)cc1 ?
Result: 7.72

Ask: Record lookup: for 72 kDa type IV collagenase (Homo sapiens), what pIC50 belongs to CC(C)[C@H](C(=O)NO)N(Cc1ccccc1)S(=O)(=O)c1ccc(N(C)C)cc1 ?
Result: 6.47

Ask: Lookup: pIC50 / 72 kDa type IV collagenase (Homo sapiens) / CC(C)[C@H](C(=O)NO)N(Cc1ccccc1)S(=O)(=O)c1ccc(OCCI)cc1
Result: 7.66

Ask: # query: pIC50 | item COc1ccc(S(=O)(=O)N(Cc2cccnc2Br)[C@@H](C(=O)NO)C(C)C)cc1 | system: 72 kDa type IV collagenase (Homo sapiens)
Result: 7.52

Ask: Write down the reported pIC50 of CC(C)[C@H](C(=O)NO)N(Cc1cccnc1)S(=O)(=O)c1ccc(N(C)C)cc1 , test system: 72 kDa type IV collagenase (Homo sapiens).
Result: 6.00

Ask: Give the reported pIC50 for CC(C)[C@H](C(=O)O)N(Cc1ccccc1)S(=O)(=O)c1ccc(OCCI)cc1 (system: 72 kDa type IV collagenase (Homo sapiens)).
Result: 6.68
